Source of measurements: paper PMC8345035

- experimental_protocol: In vivo biodistribution of [^203Pb]VMT01 in B16-F10 melanoma xenograft model
- Design: species or system athymic nude mice
- stated_conditions: both sexes, athymic nude, mouse, blood, intravenous, 74 KBq, total radioactivity, 6 h post-injection, tail vein, read-out: Biodistribution, Blood, Average
Where a SMILES comes first, the peptide text is derived from it. Bridges are numbered along the chain shown (N, C = ends). Triazole bridges read from a SMILES are 1,4-linked. Side-chain parts run from the residue outwards. [ ]: non-standard residue; d: D form. The star is where a group is joined. X1 = NC(=O)CN1CCN(CC(=O)O)CCN(CC(=O)*)CCN(CC(=O)O)CC1; Lys(N3) = [N-]=[N+]=NCCCC[C@H](N)C(=O)O; Nle = CCCC[C@H](N)C(=O)O; Pra = C#CC[C@H](N)C(=O)O; AEEA = NCCOCCOCC(=O)O

[
  {
    "molecule": "CCCC[C@H](NC(C)=O)C(=O)N[C@H]1Cc2cn(nn2)CCCC[C@@H](C(=O)N[C@@H](CCCCNC(=O)COCCOCCNC(=O)CN2CCN(CC(=O)O)CCN(CC(N)=O)CCN(CC(=O)O)CC2)C(N)=O)NC(=O)[C@H](Cc2c[nH]c3ccccc23)NC(=O)[C@H](CCCNC(=N)N)NC(=O)[C@@H](Cc2ccccc2)NC(=O)[C@H](Cc2c[nH]cn2)NC1=O [[^203Pb]VMT01, metal not drawn] (Ac-[Nle][Pra]H[dF]RW[Lys(N3)]K([AEEA-X1])-NH2; triazole 2-7)",
    "tissue uptake at 6 h, %ID/g": 0.02
  }
]
